target: Mast/stem cell growth factor receptor Kit (Homo sapiens) (UniProt P10721); conditions: at 1 µM
Sequence (P10721 whole entry): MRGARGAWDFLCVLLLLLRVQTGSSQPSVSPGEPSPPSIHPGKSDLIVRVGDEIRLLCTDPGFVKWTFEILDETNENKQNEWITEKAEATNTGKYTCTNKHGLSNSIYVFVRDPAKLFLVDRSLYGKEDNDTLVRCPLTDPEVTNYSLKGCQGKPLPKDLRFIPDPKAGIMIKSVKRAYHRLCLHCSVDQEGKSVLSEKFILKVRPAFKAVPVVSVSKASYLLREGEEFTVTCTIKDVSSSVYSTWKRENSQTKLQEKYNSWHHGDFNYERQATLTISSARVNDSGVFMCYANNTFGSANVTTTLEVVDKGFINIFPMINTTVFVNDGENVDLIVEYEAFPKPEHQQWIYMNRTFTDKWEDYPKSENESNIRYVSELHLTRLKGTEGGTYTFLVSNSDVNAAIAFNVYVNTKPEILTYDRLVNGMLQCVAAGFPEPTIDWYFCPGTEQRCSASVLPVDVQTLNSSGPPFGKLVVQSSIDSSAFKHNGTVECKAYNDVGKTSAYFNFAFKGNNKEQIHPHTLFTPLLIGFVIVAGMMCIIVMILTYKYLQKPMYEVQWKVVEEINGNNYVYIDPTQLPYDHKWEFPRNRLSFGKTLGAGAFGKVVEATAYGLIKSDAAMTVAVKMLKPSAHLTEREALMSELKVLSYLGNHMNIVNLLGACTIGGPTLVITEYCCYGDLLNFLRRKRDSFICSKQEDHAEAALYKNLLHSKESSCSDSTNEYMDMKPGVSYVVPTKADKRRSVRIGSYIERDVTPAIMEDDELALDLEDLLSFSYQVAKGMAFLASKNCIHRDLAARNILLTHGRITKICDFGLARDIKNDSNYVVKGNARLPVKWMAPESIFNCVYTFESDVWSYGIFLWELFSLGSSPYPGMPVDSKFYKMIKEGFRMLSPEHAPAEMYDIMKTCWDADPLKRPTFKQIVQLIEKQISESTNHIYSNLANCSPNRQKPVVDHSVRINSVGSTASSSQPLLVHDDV
residual activity values, listed per item

{"chem_smiles": "O=[N+]([O-])/C=C/c1ccc2c(c1)OCO2", "residual activity / %": 113}
{"chem_smiles": "CC(C)[C@H](CO)Nc1nc(Nc2cccc(Cl)c2)c2ncn(C(C)C)c2n1", "residual activity / %": 117}
{"chem_smiles": "COC(=O)[C@@]1(O)C[C@H]2O[C@]1(C)n1c3ccccc3c3c4c(c5c6ccccc6n2c5c31)C(=O)NC4", "residual activity / %": 76}

###

target: Serine/threonine-protein kinase Nek2 (Homo sapiens) (UniProt P51955); conditions: at 1 µM
Sequence (P51955 whole entry): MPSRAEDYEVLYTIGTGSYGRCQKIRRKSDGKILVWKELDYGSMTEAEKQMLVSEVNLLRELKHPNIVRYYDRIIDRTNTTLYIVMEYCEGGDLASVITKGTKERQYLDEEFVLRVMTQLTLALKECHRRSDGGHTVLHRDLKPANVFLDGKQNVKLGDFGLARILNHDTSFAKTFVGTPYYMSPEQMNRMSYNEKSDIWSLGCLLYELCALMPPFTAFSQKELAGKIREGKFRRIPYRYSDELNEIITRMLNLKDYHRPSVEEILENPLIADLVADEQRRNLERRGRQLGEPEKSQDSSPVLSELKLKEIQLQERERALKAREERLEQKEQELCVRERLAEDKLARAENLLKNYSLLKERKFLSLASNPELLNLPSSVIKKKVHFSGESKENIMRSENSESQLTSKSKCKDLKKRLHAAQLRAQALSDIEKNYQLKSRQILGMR
Description: Millipore: Percentage of residual kinase activity of NEK2 at 1uM relative to control. Control inhibitor: Phosphoric acid* at 0.3uM. Buffer: 8 mM MOPS pH 7.0, 0.2 mM EDTA
observed_property: residual activity (%)

{"chem_smiles": "COc1cc2ncnc(Nc3ccc(OCc4ccccc4)cc3)c2cc1OC", "scale_unit": "%", "test_value": 101}
{"chem_smiles": "COC(=O)[C@@]1(O)C[C@H]2O[C@]1(C)n1c3ccccc3c3c4c(c5c6ccccc6n2c5c31)C(=O)NC4", "scale_unit": "%", "test_value": 75}
{"chem_smiles": "COc1cc(OC)c(/C=C2\\C(=O)Nc3ccccc32)c(OC)c1", "scale_unit": "%", "test_value": 90}

###

residual activity values, listed per item
biological target: PAS domain-containing serine/threonine-protein kinase (Homo sapiens); conditions: at 1 µM
observed_property: residual activity

{"compound": "c1ccc(-c2n[nH]c3c2oc2ccccc23)cc1", "test_value": "130%"}
{"compound": "Oc1n[nH]c2nnc(-c3c(-c4ccccc4)nn4ccccc34)cc12", "test_value": "100%"}
{"compound": "Cc1ccc(S(=O)(=O)/C=C/C#N)cc1", "test_value": "82%"}
{"compound": "CCN(CC)CCNC(=O)c1c(C)[nH]c(/C=C2\\C(=O)Nc3ccc(Cl)cc32)c1C", "test_value": "70%"}
{"compound": "COc1ccc(C(=O)Nc2sc3c(c2C(N)=O)CCCC3)cc1OC", "test_value": "95%"}
{"compound": "Nc1ccc2ncnc(NCCc3ccc(Oc4ccccc4)cc3)c2c1", "test_value": "107%"}
{"compound": "COc1ccc(CNc2nc(N(CCO)CCO)nc3c2ncn3C(C)C)cc1", "test_value": "117%"}
{"compound": "Ic1cccc(CSc2nnc(-c3ccncc3)o2)c1", "test_value": "108%"}
{"compound": "O=c1c(-c2ccc(F)cc2)c(-c2ccncc2)[nH]n1-c1ccc(Cl)cc1", "test_value": "135%"}
{"compound": "COc1ccc(S(=O)(=O)N(CCO)c2ccccc2CN(C)C/C=C/c2ccc(Cl)cc2)cc1", "test_value": "116%"}
{"compound": "Cc1nc2cc3nc(-c4cccs4)cnc3cc2n1C", "test_value": "98%"}
{"compound": "NC(=O)Nc1sc(-c2ccc(F)cc2)cc1C(N)=O", "test_value": "107%"}
{"compound": "Nc1nc(Nc2ccc(S(N)(=O)=O)cc2)nn1C(=S)Nc1c(F)cccc1F", "test_value": "108%"}
{"compound": "N#Cc1cnc2cnc(NCc3cccnc3)cc2c1Nc1ccc(F)c(Cl)c1", "test_value": "80%"}
{"compound": "O=C1Nc2ccccc2/C1=C1/Nc2ccccc2/C1=N\\OCCC(O)CO (stereo not drawn)", "test_value": "140%"}
{"compound": "O=c1c2ccccc2[nH]c(=S)n1CCN1CCC(=C(c2ccc(F)cc2)c2ccc(F)cc2)CC1", "test_value": "85%"}
{"compound": "COc1ccc(CNC(=O)Nc2ncc([N+](=O)[O-])s2)cc1", "test_value": "133%"}
{"compound": "O=C(Nc1cccc(Nc2cc(Nc3cccc(C(F)(F)F)c3)ncn2)c1)C1CC1", "test_value": "92%"}

Where do these numbers come from? They come from ChEMBL document CHEMBL2218924.
